system: IKK-alpha; construct: gene CHUK; details: Compound Concentration (nM):1000;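 also: KINOMEscan scanMAX binding as percent activity remaining versus control; lower means stronger binding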
Flag rule - Percent Control less than 90% flags satisfied; the remaining entries get not satisfied.

Some entries whose results are on file:
NS(=O)(=O)c1ccc(N/N=C2\C(=O)Nc3ccc(C(=O)NCc4ccncc4)cc32)cc1 [GW300657X] :: satisfied
COc1ccc2c(-c3ccnc(Nc4cccc(OC(F)(F)F)c4)n3)cnn2n1 [GW810372X] :: satisfied
COc1ccc2cc(-c3c(-c4ccncc4)nc(-c4ccc(S(C)(=O)=O)cc4C)n3C)ccc2c1 :: satisfied

Data request: Quick check: Percent Control of Cl.O=C(Nc1ccc(Oc2ccc3[nH]c(NC(=O)c4ccco4)nc3c2)cc1)Nc1cc(C(F)(F)F)ccc1F [GW683134A] under 90%?
Data returned: satisfied

Data request: Quick check: Percent Control of COC(=O)Nc1nc2ccc(Oc3ccc(NC(=O)Nc4cc(C(F)(F)F)ccc4F)cc3)cc2s1.Cl [GW693917A] under 90%?
Data returned: satisfied

Data request: Quick check: Percent Control of COc1cccc(-n2ncc3c(N/N=C/c4ccncc4)ncnc32)c1 [GW784752X] under 90%?
Data returned: not satisfied

Data request: Quick check: Percent Control of CCS(=O)(=O)c1ccc(OC)c(Nc2ncc(-c3cccc(F)c3)o2)c1 [GW621970X] under 90%?
Data returned: not satisfied

Data request: Quick check: Percent Control of CCS(=O)(=O)c1ccc(OC)c(Nc2ncc(-c3cccc(OC)c3)o2)c1 [GW580509X] under 90%?
Data returned: not satisfied

Data request: Quick check: Percent Control of COc1cc(N2CCN(C(C)C)CC2)ccc1Nc1nc(Nc2ccc(F)cc2C(=O)NC[C@@H](O)CO)c2cc[nH]c2n1 [GSK1392956A] under 90%?
Data returned: not satisfied

Data request: Quick check: Percent Control of CC(C)COC(=O)c1ccc2c(c1)/C(=C/Nc1ccc(S(N)(=O)=O)cc1)C(=O)N2 [GW416981X] under 90%?
Data returned: satisfied

Data request: Quick check: Percent Control of CN(C)CCNC(=O)Nc1ccc(N(C)c2ccnc(Nc3ccc(CS(C)(=O)=O)cc3)n2)cc1.Cl [GW830900A] under 90%?
Data returned: not satisfied

Data request: Quick check: Percent Control of NS(=O)(=O)c1ccc(N/N=C2\C(=O)Nc3ccc(Cl)cc32)cc1 [GW280670X] under 90%?
Data returned: not satisfied

Data request: Quick check: Percent Control of COc1cc(/C=N/Nc2ncnc3[nH]ncc23)ccc1O [GW578748X] under 90%?
Data returned: satisfied

Data request: Quick check: Percent Control of O=C(Nc1n[nH]c2nc(-c3ccc(O)cc3)c(Br)cc12)C1CC1 under 90%?
Data returned: not satisfied

Data request: Quick check: Percent Control of CC1=C(C(=O)Nc2ccc3[nH]ncc3c2)C(c2ccc3ccccc3c2)CC(=O)N1 (stereo not drawn) [GSK270822A] under 90%?
Data returned: satisfied

###

List of Percent Control values.
test system: FLT3-autoinhibited; conditions: Compound Concentration (nM):1000
# value in %; strip the unit string

# annotated cases, reported Percent Control shown
CCn1c(-c2nonc2N)nc2c(C#CC(C)(C)O)nc(OCCNC)cc21.Cl :: 100
COc1cccc(-c2c[nH]c3c(N/N=C/c4ccncc4)ncnc23)c1 [GW814408X] :: 66
Cl.c1ccc(Cc2nc3ccc(Nc4ncnc5ccccc45)cc3[nH]2)cc1 [GR269666A] :: 86
COc1cc2ncn(-c3cc(O[C@H](C)c4ccccc4Cl)c(C(N)=O)s3)c2cc1OC [GSK237701A] :: 95
NS(=O)(=O)c1ccc(N/N=C2\C(=O)Nc3ccc(C(=O)NCCc4c[nH]cn4)cc32)cc1 [GW300660X] :: 100
COc1cc(/C=N/Nc2ncnc3[nH]ncc23)ccc1O [GW578748X] :: 84
COc1cc2ncnc(Nc3ccc4c(cnn4Cc4ccccc4)c3)c2cc1OC.Cl [GW282449A] :: 100
Cl.O=C(O[C@H]1CN[C@H](C#Cc2cc3ncnc(Nc4ccc5c(cnn5Cc5ccccc5)c4)c3s2)C1)N1CCOCC1 [GSK200398A] :: 89

Data request: Query (compound): C/C(Nc1ccc(S(N)(=O)=O)cc1)=C1/C(=O)Nc2ccccc21 [GW335962X] ; field requested: Percent Control
Data returned: 7.7

Data request: Query (compound): C[C@@H](Oc1cc(-n2cnc3ccc(OC4CCN(C)CC4)cc32)sc1C(N)=O)c1ccccc1Cl [GSK579289A] ; field requested: Percent Control
Data returned: 87

Data request: Query (compound): CCS(=O)(=O)c1ccc(OC)c(Nc2ncc(-c3cccc(OC)c3)o2)c1 [GW580509X] ; field requested: Percent Control
Data returned: 40

Data request: Query (compound): COc1cc(N2CCN(C(C)C)CC2)ccc1Nc1nc(Nc2ccc(F)cc2C(=O)NC[C@@H](O)CO)c2cc[nH]c2n1 [GSK1392956A] ; field requested: Percent Control
Data returned: 95

Data request: Query (compound): COc1ccc2c(-c3ccnc(Nc4cccc(OC(F)(F)F)c4)n3)cnn2n1 [GW810372X] ; field requested: Percent Control
Data returned: 86

###

List of Percent Control values.
system: CDK4; conditions: Compound Concentration (nM):1000
# value in %; strip the unit string

# annotated cases, reported Percent Control shown
C/C(Nc1ccc(S(N)(=O)=O)cc1)=C1/C(=O)Nc2ccccc21 [GW335962X] :: 100
COc1cc(C=NNc2ncnc3c2cnn3-c2ccccc2)ccc1O [GW513184X] :: 100

Data request: Query (molecule): COc1ccc2c(-c3ccnc(Nc4cccc(OC(F)(F)F)c4)n3)cnn2n1 [GW810372X] ; field requested: Percent Control
Data returned: 83

Data request: Query (molecule): CN1CCN(C(=O)c2ccc(NC(=O)Nc3ccc(N(C)c4ccnc(Nc5ccc(CS(C)(=O)=O)cc5)n4)cc3)cc2)CC1.Cl [GW830263A] ; field requested: Percent Control
Data returned: 83

###

test system: PIK3CA(Q546K); settings: Compound Concentration (nM):1000
List of Percent Control values.
# value in %; strip the unit string

Data request: Query (compound): CC1=C(C(=O)Nc2ccc3[nH]ncc3c2)C(c2ccc(Cl)c(Cl)c2)CC(=O)N1 (centres unmarked) [GSK299115A] ; field requested: Percent Control
Data returned: 83

Data request: Query (compound): Cl.O=S1CCN(Cc2ccc(-c3ccc4ncnc(Nc5ccc(OCc6ccccc6)c(F)c5)c4c3)o2)CC1 [GW576924A] ; field requested: Percent Control
Data returned: 100

Data request: Query (compound): Nc1ncnc2occ(-c3ccc(NC(=O)Nc4cc(C(F)(F)F)ccc4F)cc3)c12 [GW770249X] ; field requested: Percent Control
Data returned: 100

Data request: Query (compound): Cl.O=C(O[C@H]1CN[C@H](C#Cc2cc3ncnc(Nc4ccc5c(cnn5Cc5ccccc5)c4)c3s2)C1)N1CCOCC1 [GSK200398A] ; field requested: Percent Control
Data returned: 98

Data request: Query (compound): COc1ccc(COc2ccc(Cc3cnc(N)nc3N)cc2OC)cc1 [GW632580X] ; field requested: Percent Control
Data returned: 100

Data request: Query (compound): C/C(Nc1ccc(S(N)(=O)=O)cc1)=C1/C(=O)Nc2ccccc21 [GW335962X] ; field requested: Percent Control
Data returned: 100

Data request: Query (compound): O=C1Nc2ccc(C(=O)c3ccco3)cc2C1=Cc1cc(Cl)c(O)c(Cl)c1 [GW406108X] ; field requested: Percent Control
Data returned: 77

Data request: Query (compound): NS(=O)(=O)c1ccc(Nc2ncc(-c3ccccc3)o2)cc1 [GW572399X] ; field requested: Percent Control
Data returned: 100

###

tested on: RIOK3; conditions: Compound Concentration (nM):1000
Flag rule - Percent Control less than 70% flags satisfied; the remaining entries get not satisfied.

Data request: Quick check: Percent Control of CC1=C(C(=O)Nc2ccc3[nH]ncc3c2)C(c2ccc(Cl)c(Cl)c2)CC(=O)N1 (stereo not drawn) [GSK299115A] under 70%?
Data returned: not satisfied

Data request: Quick check: Percent Control of COc1cc(C=NNc2ncnc3c2cnn3-c2ccccc2)ccc1O [GW513184X] under 70%?
Data returned: satisfied

Data request: Quick check: Percent Control of CCn1c(-c2nonc2N)nc2c(C#CC(C)(C)O)nc(OCCNC)cc21.Cl [GSK949675] under 70%?
Data returned: not satisfied

Data request: Quick check: Percent Control of NS(=O)(=O)c1ccc(N/N=C2\C(=O)Nc3ccc(C(=O)NCc4ccncc4)cc32)cc1 [GW300657X] under 70%?
Data returned: satisfied

Data request: Quick check: Percent Control of COc1cc2ncnc(Nc3ccc4c(cnn4Cc4ccccc4)c3)c2cc1OC.Cl [GW282449A] under 70%?
Data returned: not satisfied

Data request: Quick check: Percent Control of Cc1cc(O)cc(C)c1/C=C/c1cncc(C(N)=O)c1 [GW435821X] under 70%?
Data returned: not satisfied

Data request: Quick check: Percent Control of COC(=O)Nc1nc2ccc(Oc3ccc(NC(=O)Nc4cc(C(F)(F)F)ccc4F)cc3)cc2s1.Cl [GW693917A] under 70%?
Data returned: satisfied

Data request: Quick check: Percent Control of COc1cc2ncn(-c3cc(O[C@H](C)c4ccccc4Cl)c(C(N)=O)s3)c2cc1OC [GSK237701A] under 70%?
Data returned: satisfied

Data request: Quick check: Percent Control of COc1cccc(-c2c[nH]c3c(N/N=C/c4ccncc4)ncnc23)c1 [GW814408X] under 70%?
Data returned: satisfied

Source of measurements: paper PMC7826789
